We begin with a simple list: items and their reported Kd.
Biological target: PI3Kδ (Homo sapiens, UniProt O00329)
Construct: purchased DiscoveRx Corporation, San Diego (contract service, KINOMEscan)
Sequence (O00329 whole entry): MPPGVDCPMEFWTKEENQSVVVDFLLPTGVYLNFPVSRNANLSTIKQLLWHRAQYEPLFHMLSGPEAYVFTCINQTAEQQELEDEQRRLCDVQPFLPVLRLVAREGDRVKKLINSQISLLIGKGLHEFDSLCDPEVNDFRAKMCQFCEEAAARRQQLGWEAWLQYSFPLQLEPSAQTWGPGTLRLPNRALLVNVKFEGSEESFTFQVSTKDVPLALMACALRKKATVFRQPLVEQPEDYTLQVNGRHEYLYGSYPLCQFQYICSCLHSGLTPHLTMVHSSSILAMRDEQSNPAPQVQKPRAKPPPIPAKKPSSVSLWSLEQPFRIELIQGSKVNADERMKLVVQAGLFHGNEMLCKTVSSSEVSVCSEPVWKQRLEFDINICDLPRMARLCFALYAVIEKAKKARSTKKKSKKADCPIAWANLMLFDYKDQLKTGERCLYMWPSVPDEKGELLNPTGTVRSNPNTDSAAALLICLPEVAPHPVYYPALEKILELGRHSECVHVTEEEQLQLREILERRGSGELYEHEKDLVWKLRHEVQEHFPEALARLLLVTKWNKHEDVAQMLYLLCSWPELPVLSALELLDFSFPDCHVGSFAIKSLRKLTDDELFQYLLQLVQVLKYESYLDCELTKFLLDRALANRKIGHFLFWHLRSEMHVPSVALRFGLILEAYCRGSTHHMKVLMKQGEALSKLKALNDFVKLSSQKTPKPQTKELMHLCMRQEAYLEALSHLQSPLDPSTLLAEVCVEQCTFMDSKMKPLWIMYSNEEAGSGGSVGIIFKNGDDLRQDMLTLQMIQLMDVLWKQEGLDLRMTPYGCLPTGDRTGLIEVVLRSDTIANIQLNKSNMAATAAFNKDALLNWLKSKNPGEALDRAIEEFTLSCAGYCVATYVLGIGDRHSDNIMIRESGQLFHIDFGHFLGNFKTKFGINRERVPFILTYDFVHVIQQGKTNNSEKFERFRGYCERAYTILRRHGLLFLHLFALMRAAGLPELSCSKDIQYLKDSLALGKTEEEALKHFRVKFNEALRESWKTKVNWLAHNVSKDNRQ
Experiment: Enzyme binding assay (KINOMEscan, DiscoveRx)
Conditions: PIK3Cδ_h
Description: Enzyme Binding Assays (KINOMEscan®) Kinase enzyme binding affinities of compounds disclosed herein were determined using the KINOMEscan technology performed by DiscoveRx Corporation, San Diego, Calif., USA (www.kinomescan.com).
Write down the numeric answer in nM and omit the unit.

CC(Oc1cc(F)cc(F)c1)c1cc(C(=O)N(C)CCO)cc2ncc(N3CCOCC3)nc12 (racemic) [Compound 59]    331
CC(Nc1ccc(F)c(F)c1)c1cc(C(=O)N(C)C2CCNC2)cc2ncc(N3CCOCC3)nc12 (stereo not drawn) [Compound 322b]    68
CC(Nc1cccc(F)c1)c1cc(C(=O)N2CCOCC2)cc2ncc(N3CCOCC3)nc12 (stereo not drawn)    263
CC(Nc1cc(F)cc(F)c1)c1cc(C(=O)N2CCNC(C(F)(F)F)C2)cc2ncc(N3CCOCC3)nc12 (stereo not drawn) [Compound 237]    138
O=C(c1cc(NCc2cc(F)cc(F)c2)c2nc(N3CCOCC3)cnc2c1)N1CCCNCC1    1700

Query string: State the measured Kd (PI3Kδ (Homo sapiens, UniProt O00329)) of Cc1cc(C2CCCN2c2cc(F)cc(F)c2)c2nc(N3CCOCC3)cnc2c1 (single isomer, unassigned)
Result string: 1000

Query string: Supply Kd measured with PI3Kδ (Homo sapiens, UniProt O00329) for CC(Nc1cc(F)cc(F)c1)c1cc(C(=O)O)cc2ncc(N3CCOCC3)nc12 (stereo not drawn) [Compound 83a] .
Result string: 158

Query string: Report Kd under test system PI3Kδ (Homo sapiens, UniProt O00329) for CN[C@H]1CCN(C(=O)c2cc(C(C)Nc3ccc(F)c(F)c3)c3nc(N4CCOCC4)cnc3c2)C1 (single isomer, unassigned) [Compound 365a] .
Result string: 204

Query string: # return Kd of CC(Nc1ccc(F)c(F)c1)c1cc(C(=O)NCC2CCCN2)cc2ncc(N3CCOCC3)nc12 (single isomer, unassigned) [Compound 329b] (system: PI3Kδ (Homo sapiens, UniProt O00329))
Result string: 1780

Query string: Look up and report Kd, with PI3Kδ (Homo sapiens, UniProt O00329) as system, for CC(C)NCCNC(=O)c1cc(C(C)Oc2ccc(F)c(F)c2)c2nc(N3CCOCC3)cnc2c1 (single isomer, unassigned) [Compound 286b]
Result string: 355
